Let's look at some compounds and their measured cytotoxicity at 32 µM.
test: Cytotoxicity upon MRC-5 cells (diploid embryonic lung cell line) at 32 uM concentration; format: cell-based, MRC5; details: human
// note: answer is a bare numeric in %

compound="CCN(CC)CCCC(C)Nc1ccnc2cc(Cl)ccc12 (configuration not stated)" observed_property="cytotoxicity at 32 µM" reported_measurement=0

cytotoxicity at 32 µM in this record for CCN(CC)Cc1cc(Nc2ccnc3cc(Cl)ccc23)ccc1O.Cl : 91

====

test: Cytotoxicity upon MRC-5 cells (diploid embryonic lung cell line) at 25 uM conc.; type: cell-based, MRC5; settings: human
Assign yes (1) whenever cytotoxicity at 25 µM does not fall below 70%; assign no (0) whenever it does.

The examples below pair each entry with its known result.
smiles_str=O=C(CN1CCCCC1)Nc1cc(COC(=O)c2ccccc2)cc(Nc2ccnc3cc(Cl)ccc23)c1 classification="no (0)"
smiles_str=O=C(CN1CCCCC1)Nc1cc(COC(=O)CN2CCCCC2)cc(Nc2ccnc3cc(Cl)ccc23)c1 classification="yes (1)"
smiles_str=O=C(CN1CCCCC1)Nc1cc(CO)cc(Nc2ccnc3cc(Cl)ccc23)c1 classification="yes (1)"
smiles_str=O=C(CN1CCCCC1)Nc1cc(COC(=O)CCCCN2CCCC2)cc(Nc2ccnc3cc(Cl)ccc23)c1 classification="yes (1)"

*Q* Hi team, for CCN(CC)CCCCC(=O)OCc1cc(NC(=O)CN2CCCCC2)cc(Nc2ccnc3cc(Cl)ccc23)c1 , is the recorded cytotoxicity at 25 µM at or above 70%?
*A* no (0)

*Q* Hi team, for O=C(CN1CCCCC1)Nc1cc(COC(=O)CCCCBr)cc(Nc2ccnc3cc(Cl)ccc23)c1 , is the recorded cytotoxicity at 25 µM at or above 70%?
*A* no (0)

*Q* Hi team, for O=C(CN1CCCCC1)Nc1cc(COC(=O)CCCCCN2CCCCC2)cc(Nc2ccnc3cc(Cl)ccc23)c1 , is the recorded cytotoxicity at 25 µM at or above 70%?
*A* yes (1)

====

test: Cytotoxicity upon MRC-5 cells (diploid embryonic lung cell line) at 8 uM; format: cell-based, MRC5; conditions: human
OBSERVED PROPERTY: cytotoxicity at 8 µM (%)
// note: answer is a bare numeric in %

smiles_str=O=C(CN1CCCCC1)Nc1cc(CN2CCOCC2)cc(Nc2ccnc3cc(Cl)ccc23)c1 reported_measurement=0
smiles_str=O=C(CN1CCCCC1)Nc1cc(CO)cc(Nc2ccnc3cc(Cl)ccc23)c1 reported_measurement=0
smiles_str=O=C(CN1CCCCC1)Nc1cc(CN2CCCCC2)cc(Nc2ccnc3cc(Cl)ccc23)c1 reported_measurement=100
smiles_str=O=C(CN1CCCCC1)Nc1cc(CN2CCN(Cc3ccc4c(c3)OCO4)CC2)cc(Nc2ccnc3cc(Cl)ccc23)c1 reported_measurement=99
smiles_str=CN1CCN(Cc2cc(NC(=O)CN3CCCCC3)cc(Nc3ccnc4cc(Cl)ccc34)c2)CC1 reported_measurement=80

cytotoxicity at 8 µM in this record for COc1ccc(CN2CCN(Cc3cc(NC(=O)CN4CCCCC4)cc(Nc4ccnc5cc(Cl)ccc45)c3)CC2)cc1 : 100

cytotoxicity at 8 µM in this record for CN(C)CCCNCc1cc(NC(=O)CN2CCCCC2)cc(Nc2ccnc3cc(Cl)ccc23)c1 : 0

cytotoxicity at 8 µM in this record for O=C(CN1CCCCC1)Nc1cc(CN2CCN(c3ccccc3)CC2)cc(Nc2ccnc3cc(Cl)ccc23)c1 : 100

cytotoxicity at 8 µM in this record for O=Cc1cc(NC(=O)CN2CCCCC2)cc(Nc2ccnc3cc(Cl)ccc23)c1 : 0

cytotoxicity at 8 µM in this record for O=C(CN1CCCCC1)Nc1cc(CN2CCC(O)CC2)cc(Nc2ccnc3cc(Cl)ccc23)c1 : 100

cytotoxicity at 8 µM in this record for O=C(CN1CCCCC1)Nc1cc(CN2CCN(Cc3ccc([N+](=O)[O-])cc3)CC2)cc(Nc2ccnc3cc(Cl)ccc23)c1 : 99
